System: ivyleaf morningglory (Ipomoea hederacea, IPOHE)
assayOverview: Pre-emerge test, greenhouse herbicide activity screening
Assay type: in vivo
conditionContext: 63 g ai/ha; pre-emerge; rated 14 days after application; 0 = no damage, 100 = complete death
Each entry below carries its recorded Pre-emerge Herbicidal Activity IPOHE (phytotoxicity rating, scale 0-100).
Enter a number only.

Consider the following illustrative entries.
Given Cn1c(C(F)(F)F)cc(=O)n(-c2c(F)cc(Cl)c(OC3CCCC3)c2N)c1=O [Compound 1-21] , state its recorded Pre-emerge Herbicidal Activity IPOHE (phytotoxicity rating, scale 0-100).
0

Record: CCOC(=O)C(C)Nc1c(OC)c(Cl)cc(F)c1-n1c(=O)cc(C(F)(F)F)n(C)c1=O (centres unmarked) [Compound 1-55]
0

Record: Cn1c(C(F)(F)F)cc(=O)n(-c2c(F)cc(Cl)c(OCC#N)c2NC(=O)C(F)(F)F)c1=O [2-11]
70

Record: C=CC(=O)N(C(=O)C=C)c1c(OC)c(Cl)cc(F)c1-n1c(=O)cc(C(F)(F)F)n(C)c1=O [2-4]
20

Record: Cc1c(Cl)cc(F)c(-n2c(=O)cc(C(F)(F)F)n(C)c2=O)c1N [Compound 1-37]
100

Others:
Given CCOC(=O)C(C)Nc1cc(Cl)cc(F)c1-n1c(=O)cc(C(F)(F)F)n(C)c1=O (centres unmarked) [Compound 1-54] , state its recorded Pre-emerge Herbicidal Activity IPOHE (phytotoxicity rating, scale 0-100).
100

Record: COc1c(Cl)cc(F)c(-n2c(=O)cc(C(F)(F)F)n(C)c2=O)c1NC(=O)C=C(C)C [2-7]
70

Record: COc1c(Cl)cc(F)c(-n2c(=O)cc(C(F)(F)F)n(C)c2=O)c1N(C(=O)C=C(C)C)C(=O)C=C(C)C [2-8]
0

---

Tested on: ivyleaf morningglory (Ipomoea hederacea, IPOHE)
assayOverview: Pre-emerge test, greenhouse herbicide activity screening
Assay type: in vivo
conditionContext: 250 g ai/ha; pre-emerge; rated 14 days after application; 0 = no damage, 100 = complete death
measuredProperty: Pre-emerge Herbicidal Activity IPOHE (phytotoxicity rating, scale 0-100)
Enter a number only.

// lookup Pre-emerge Herbicidal Activity IPOHE (phytotoxicity rating, scale 0-100) | system=ivyleaf morningglory (Ipomoea hederacea, IPOHE) | key= COC(=O)C=CCOc1c(Cl)cc(F)c(-n2c(=O)cc(C(F)(F)F)n(C)c2=O)c1N [Compound 1-20]
100

Record: COc1c(Cl)cc(F)c(-n2c(=O)cc(C(F)(F)F)n(C)c2=O)c1NC(C)=O [2-1]
100

Record: COC(=O)C(=O)Nc1c(OC)c(Cl)cc(F)c1-n1c(=O)cc(C(F)(F)F)n(C)c1=O [2-15]
30

Others:
// lookup Pre-emerge Herbicidal Activity IPOHE (phytotoxicity rating, scale 0-100) | system=ivyleaf morningglory (Ipomoea hederacea, IPOHE) | key= COc1c(Cl)cc(F)c(-n2c(=O)cc(C(F)(F)F)n(C)c2=O)c1NC(=O)C=C(C)C [2-7]
100

Record: COc1c(Cl)cc(F)c(-n2c(=O)cc(C(F)(F)F)n(C)c2=O)c1NC(=O)C(F)(F)F [2-10]
100

Record: COc1c(Cl)cc(F)c(-n2c(=O)cc(C(F)(F)F)n(C)c2=O)c1N=C(Cl)C(Cl)(Cl)Cl [Compound 1-30]
70

Record: Cn1c(C(F)(F)F)cc(=O)n(-c2c(F)cc(Cl)c(OCc3ccccc3)c2N)c1=O [Compound 1-22]
20

Record: COc1c(Cl)cc(F)c(-n2c(=O)cc(C(F)(F)F)n(C)c2=O)c1NC(=O)c1ccc(C)cc1 [2-24]
100

---

System: green foxtail (Setaria viridis, SETVI)
assayOverview: Pre-emerge test, greenhouse herbicide activity screening
Format: in vivo
conditionContext: pre-emerge, 250 g ai/ha, 14 days after application, scale 0-100
Description: A standard greenhouse herbicide activity screening system was used to evaluate the herbicidal efficacy and crop safety of these test compounds. […] At 14 days after application of the test materials, phytotoxicity ratings were recorded. […]
Each entry below carries its recorded phytotoxicity rating SETVI.
Enter a number only.

Consider the following illustrative entries.
Given Cn1c(C(F)(F)F)cc(=O)n(-c2ccc(C#N)cc2NC(=O)C=Cc2ccccc2)c1=O , state its recorded phytotoxicity rating SETVI.
70

Record: COc1c(Cl)cc(F)c(-n2c(=O)cc(C(F)(F)F)n(C)c2=O)c1NC(=O)CSc1ccc2ccccc2c1
30

Record: Cn1c(C(F)(F)F)cc(=O)n(-c2ccc(C(F)(F)F)cc2NC(=O)c2ccc3ccccc3c2)c1=O
90

Record: CCCSCC(=O)Nc1c(OC)c(Cl)cc(F)c1-n1c(=O)cc(C(F)(F)F)n(C)c1=O
90

Record: COc1c(Cl)cc(F)c(-n2c(=O)cc(C(F)(F)F)n(C)c2=O)c1NC(=O)CSC(C)C
80

Record: COc1c(Cl)cc(F)c(-n2c(=O)cc(C(F)(F)F)n(C)c2=O)c1NC(=O)CSC
95

Record: COc1c(Cl)cc(F)c(-n2c(=O)cc(C(F)(F)F)n(N)c2=O)c1NC(=O)c1ccc2ccccc2c1
100

Record: Cn1c(C(F)(F)F)cc(=O)n(-c2ccccc2NC(=O)c2ccc3ccccc3c2)c1=O
0

Next, consider the following molecule.
Given COc1c(Cl)cc(F)c(-n2c(=O)cc(C(F)(F)F)n(C)c2=O)c1NC(=O)COc1ccc(Cl)cc1 , state its recorded phytotoxicity rating SETVI.
100

---

Each entry below carries its recorded pest or weed control at 250 g/ha.
Tested on: green foxtail (Setaria viridis, SETVI)
assayOverview: Pre-emerge test, greenhouse herbicide activity screening
Assay type: in vivo
conditionContext: Setaria viridis, pre-emergence, 336 h; pre-emerge, rate 250 g ai/ha, phytotoxicity rating 0-100 at 14 days after application; read-out: Pre-emerge Herbicidal Activity SETVI
Write the answer as a number in %, unit excluded.

Given Cc1nn(-c2c(F)cc(Cl)cc2NC(=O)c2ccc3ccccc3c2)c(=O)n1C(F)F , state its recorded pest or weed control at 250 g/ha.
40

Record: CC(C)Oc1c(Cl)cc(F)c(N2C(=O)C3=C(CCCC3)C2=O)c1N
70

Record: COc1c(Cl)cc(Cl)c(-n2nc(C)n(C(F)F)c2=O)c1NC(=O)c1ccc2ccccc2c1
99

Others:
Given Cc1nn(-c2c(Cl)cc(Cl)c(N)c2N)c(=O)n1C(F)F , state its recorded pest or weed control at 250 g/ha.
0

Record: COc1c(Cl)cc(F)c(-c2nn(C)c(C(F)(F)F)c2Cl)c1N
100

Record: Nc1c(O)c(Cl)cc(F)c1N1C(=O)C2=C(CCCC2)C1=O
100

---

Each entry below carries its recorded phytotoxicity rating RICE.
Tested on: upland rice (Oryza sp., var. Tebonnet, RICE)
assayOverview: Post-emerge test, crop safety
Type: in vivo
conditionContext: post-emerge, 63 g ai/ha, 14 days after application, rating scale 0-100
Enter a number only.

Consider the following illustrative entries.
Given COc1c(Cl)cc(F)c(-n2c(=O)cc(C(F)(F)F)n(C)c2=O)c1NC(=O)c1ccc(Cl)cc1Cl , state its recorded phytotoxicity rating RICE.
50

Record: COc1c(Cl)cc(F)c(-n2c(=O)cc(C(F)(F)F)n(C)c2=O)c1NC(=O)c1cc(F)cc(F)c1
60

Record: COc1c(Cl)cc(F)c(-n2c(=O)cc(C(F)(F)F)n(C)c2=O)c1NC(=O)c1ccc(F)cc1F
60

Next, consider the following compound.
Given Cc1c(Cl)cc(F)c(-n2c(=O)cc(C(F)(F)F)n(C)c2=O)c1NC(=O)C=Cc1ccccc1 , state its recorded phytotoxicity rating RICE.
60

---

Each entry below carries its recorded phytotoxicity rating CORN (crop damage).
Tested on: field corn (Zea mays L., var. Dekalb 535, CORN)
assayOverview: Post-emerge test, crop safety
Type: in vivo
conditionContext: post-emerge, 63 g ai/ha, 14 days after application, rating scale 0-100
Enter a number only.

Consider the following illustrative entries.
Given COc1c(Cl)cc(F)c(-n2c(=O)cc(C(F)(F)F)n(C)c2=O)c1NC(=O)OCc1cc(F)ccc1F , state its recorded phytotoxicity rating CORN (crop damage).
70

Record: COc1c(Cl)cc(F)c(-n2c(=O)cc(C(F)(F)F)n(C)c2=O)c1NC(=O)OCc1ccccc1[N+](=O)[O-]
25

Record: Cc1c(Cl)cc(F)c(-n2c(=O)cc(C(F)(F)F)n(C)c2=O)c1NC(=O)OCc1ccccc1Cl
40

Record: Cn1c(C(F)(F)F)cc(=O)n(-c2c(F)cc(Cl)c(OCC#N)c2NC(=O)OCc2ccccc2)c1=O
35

Record: COc1c(Cl)cc(F)c(-n2c(=O)cc(C(F)(F)F)n(C)c2=O)c1NC(=O)OCc1cc(C)cc(C)c1
20

Record: COc1c(Cl)cc(F)c(-n2c(=O)cc(C(F)(F)F)n(C)c2=O)c1NC(=O)OCc1cccc(F)c1
90

Record: Cn1c(C(F)(F)F)cc(=O)n(-c2ccc(OC(F)(F)F)cc2NC(=O)c2ccc3ccccc3c2)c1=O
10

Record: COc1c(Cl)cc(F)c(-n2c(=O)cc(C(F)(F)F)n(C)c2=O)c1NC(=O)OCc1ccc(F)cc1
90

Others:
Given Cc1c(Cl)cc(F)c(-n2c(=O)cc(C(F)(F)F)n(C)c2=O)c1NC(=O)OCCc1ccccc1 , state its recorded phytotoxicity rating CORN (crop damage).
40

Record: COC(=O)N(C(=O)OC)c1c(OC)c(Cl)cc(F)c1-n1c(=O)cc(C(F)(F)F)n(C)c1=O
0

Record: Cn1c(C(F)(F)F)cc(=O)n(-c2c(F)cc(Cl)c(OCC#N)c2NC(=O)c2ccc3ccccc3c2)c1=O
10

Record: COc1c(Cl)cc(F)c(-n2c(=O)cc(C(F)(F)F)n(C)c2=O)c1NC(=O)Nc1ccccc1
0
